Test: A CellTox Green Cytotoxicity Assay to monitor cytotoxicity in HepG2 cells - 40 hour (AID 1224879); also: nearly all actives have a fitted effect of over 40% in size
Settings: CellTox Green fluorescence; series mostly up to 76.8 µM
Results filed as inconclusive are left out. Calls of active or inactive are those of the source. Calls follow the shape of the dose curve; as a rule, active = well fitted activation curve with a large enough effect in the repeat runs; inconclusive = weak or mixed curves; inactive = flat fitted curve, though single readings scatter.
Outcome codes: active, inactive

compound=CCCCCCCC/C=C\CCCCCCCCCCCC(=O)O class_assignment=inactive
compound=CCC(=O)OC class_assignment=inactive
compound=CCCCCCCCCCCCCCN(CCO)CCO class_assignment=active
compound=O=C1c2ccccc2C(=O)C1c1nc2ccccc2c(Br)c1O class_assignment=active
compound=Cc1ccco1 class_assignment=inactive
compound=COC(=O)[C@H]1[C@H]2C[C@@H]3c4[nH]c5cc(OC)ccc5c4CCN3C[C@H]2C[C@@H](OC(=O)/C=C/c2ccc(O)c(OC)c2)[C@@H]1OC class_assignment=active
compound=N#CCCN(CCO)CCO class_assignment=inactive
compound=CCc1ccccc1 class_assignment=inactive
compound=CC(=O)c1ccc([N+](=O)[O-])cc1 class_assignment=inactive
compound=OC1(c2ccccc2)CCNCC1 class_assignment=inactive
compound="CCC(C)COC(C)=O (stereo not given)" class_assignment=inactive
compound=CC(=O)OCC(=O)NCCCOc1cccc(CN2CCCCC2)c1 class_assignment=inactive
compound=C1C[C@@H]2[C@H]3CC[C@H](C3)[C@@H]2C1 class_assignment=inactive
compound=CC(C)=CCC/C(C)=C/CC/C(C)=C/C(=O)OCC(=O)[C@@]1(O)CC[C@H]2[C@@H]3CCC4=CC(=O)C=C[C@]4(C)[C@H]3[C@@H](O)C[C@@]21C class_assignment=inactive
compound=C/C=C/C=C/C=O class_assignment=inactive
compound=CCOC(=O)c1ccccc1C(=C1C=C(Br)C(=O)C(Br)=C1)c1cc(Br)c(O)c(Br)c1 class_assignment=inactive
compound=Cc1[nH]cnc1CN1CCc2c(c3ccccc3n2C)C1=O class_assignment=inactive
compound=O[C@@H]1CO[C@H]2[C@@H]1OC[C@@H]2O class_assignment=inactive
compound=CCOC(=O)c1ccc(OCCN2C[C@H](O)[C@@H](O)[C@H](O)[C@H]2CO)cc1 class_assignment=inactive
compound=C=C1c2cccc(O)c2C(O)=C2C(=O)[C@]3(O)C(O)=C(C(N)=O)C(=O)[C@@H](N(C)C)[C@@H]3[C@@H](O)[C@H]12 class_assignment=inactive
compound=CCCCCCC(C)(C)C(=O)O class_assignment=inactive
compound=CC(=O)OCC[N+](C)(C)C class_assignment=inactive
compound=Cc1ccccc1S class_assignment=inactive
compound=CNC(=O)c1cnn(-c2nc(N)c3ncn([C@@H]4O[C@H](CO)[C@@H](O)[C@H]4O)c3n2)c1 class_assignment=inactive
compound=NC(=O)c1ccncc1 class_assignment=inactive
